What IC50 was measured for each of the following?
target.system: interaction between the KRAS protein subtype G12V and the SOS1 protein (Homo sapiens, UniProt Q07889)
Construct: GST-TEV-SOS1(564-1049) (Viva Biotech, SOS1-191010); purchased SOS1: Viva Biotech; KRAS: Shanghai Panchao Biotechnology Co., Ltd. SOS1-191010
Sequence (Q07889 564-1049, stated change not applied): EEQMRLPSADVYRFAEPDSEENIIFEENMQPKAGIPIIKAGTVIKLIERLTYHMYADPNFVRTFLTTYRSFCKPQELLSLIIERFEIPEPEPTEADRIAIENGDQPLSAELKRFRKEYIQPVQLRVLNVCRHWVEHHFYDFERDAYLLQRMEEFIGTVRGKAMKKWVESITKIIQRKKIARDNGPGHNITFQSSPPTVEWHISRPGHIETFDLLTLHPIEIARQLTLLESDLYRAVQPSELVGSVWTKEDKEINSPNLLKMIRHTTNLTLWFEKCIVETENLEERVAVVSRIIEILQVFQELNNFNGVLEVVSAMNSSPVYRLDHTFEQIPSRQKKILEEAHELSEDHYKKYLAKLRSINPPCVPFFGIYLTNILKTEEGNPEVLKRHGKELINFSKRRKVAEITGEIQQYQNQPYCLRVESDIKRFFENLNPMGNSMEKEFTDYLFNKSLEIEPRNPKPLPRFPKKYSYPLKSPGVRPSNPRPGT
assay.procedure: Inhibition of the interaction between KRAS G12V and SOS1 protein (AlphaLISA/AlphaScreen)
Assay type: binding
particulars: KRAS G12V + GST-TEV-SOS1(564-1049) + GDP
One number for each entry, in nM.

Below are worked cases with known answers.
CC(=O)N1CC=C(c2cc3c(N[C@H](C)c4cc(N)cc(C(F)(F)F)c4)nc(C)nc3[nH]c2=O)CC1: 67
CNC(=O)C1CCC(O)(c2cc3c(N[C@H](C)c4cccc(C(F)F)c4F)nc(C)nc3[nH]c2=O)CC1 (stereo partly shown): 101
Cc1nc(N[C@H](C)c2cccc(C(F)F)c2F)c2cc(C3(O)CCN(C(=O)CF)CC3)c(=O)[nH]c2n1 (racemic): 27

From here, focus on the item given below.
Sample Cc1nc(N[C@H](C)c2cccc(C(F)(F)CO)c2F)c2cc(C3=CCOCC3)c(=O)[nH]c2n1 ; IC50 observed: 54

FYI, the data here is from patent US20230219951A1.
